The origin of these recorded values is patent EP4582447A1.

What Maximum inhibition rate (%) was measured for each of the following?
target: T1, Human VEGFA165 (human, UniProt P15692-4 27-191); experiment: competition ELISA on coated VEGFA, competitor VEGFR2-ECD-Fc 1 nM
T1 construct: treated as the same molecule; also called antigen VEGFA
T1 sequence (P15692 other isoform, or with tags, fused parts or gaps limits assumed): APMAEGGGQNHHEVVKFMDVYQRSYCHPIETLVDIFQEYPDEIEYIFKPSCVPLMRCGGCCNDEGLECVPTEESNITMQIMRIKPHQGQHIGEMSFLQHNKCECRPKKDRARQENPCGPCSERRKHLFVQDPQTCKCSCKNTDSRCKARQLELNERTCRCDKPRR

V21 (VHH, Purified with C-terminal GGGGS-6×His) VHH: QLQLVESGGGSVQPGGSLRLSCEVSGRTFTSYTMGWFRQAPGKEREFVVAISKGGYKYNTVSLEARFTISKDNTKNTVYLQMNSLKPEDTAVYYCAGTRAYGSSRLRLAETYEYWGQGTQVTVSS; 88.3%

For every item in the list below, what is its measured Maximum inhibition rate (%)?
1. V36 (VHH, Purified with C-terminal GGGGS-6×His) VHH: QLQLVESGGGSVQPGGSLRLSCEVSGRTFASYTMGWFRQAPGKEREFVVAISKGGYKYDSVSLEARFTISKDNTKNTVYLQMNSLKPEDTAVYYCAGTRAYGSSRLRLADTYEYWGQGTQVTVSS
2. V1 (VHH, also called candidate antibody V1; antibody V1) VHH: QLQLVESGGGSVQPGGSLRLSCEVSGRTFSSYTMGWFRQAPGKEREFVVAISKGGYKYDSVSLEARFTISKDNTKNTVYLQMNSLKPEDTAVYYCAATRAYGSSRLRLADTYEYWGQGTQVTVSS
3. V30 (VHH, Purified with C-terminal GGGGS-6×His; also called candidate antibody V30) VHH: QLQLVESGGGSVQPGGSLRLSCEVSGRTFSSYTMGWFRQAPGKGREFVVAISKGGYKYDAVSLEARFTISKDNTKNTVYLQMNSLKPEDTAVYYCAATRAYGSSRLRLAKTYEYWGQGTQVTVSS

**A:**
["96.3%", "90.5%", "96.5%"]
